ASSAY REMARKS: Superoxyl radical (O2) scavenging reaction rate constant in competition with nitro-blue tetrazolium of superoxyl radicals formed by xanthine oxidase in the presence of xanthine
Format: functional
Rate constant values, listed per item

# MOLECULE, Rate constant
measured = [
    ("Cc1c(C)c2c(c(C)c1O)C(CN1CCN(Cc3ccccc3)CC1)C(C)(C)O2 (stereo not drawn)", "20000 M⁻¹ s⁻¹"),
    ("Cc1c(C)c2c(c(C)c1O)C(C(=O)O)C(C)(C)O2 (stereo not drawn)", "67000 M⁻¹ s⁻¹"),
]

Now, please, on to the next molecule.
Exercise: Specify measured Rate constant for Cc1c(C)c2c(c(C)c1O)C(CO)C(C)(C)O2 (stereo not drawn) .
Key: 140000 M⁻¹ s⁻¹

Where do these numbers come from? They come from ChEMBL document CHEMBL1128228.
